System: Zika virus NS2B-NS3 protease (unlinked complex)
Test: Primary screen GU Rhodamine qHTS for Zika virus inhibitors: Unlinked NS2B-NS3 protease assay (AID 1347159); note: % is set by controls: 0 for no effect and ±100 for the full control effect; nearly all actives have a fitted effect of over 60% in size
Conditions: Recombinant ZIKV NS2B-NS3 protease, Rhodamine110 substrate fluorescence; series mostly up to 107 µM
Records with an inconclusive call do not appear. Calls of active or inactive are those of the source. Calls come from the whole dose curve; as a rule, active = well fitted inhibition curve with a large enough effect; inconclusive = small, poorly fitted or top-dose-only effect; inactive = no such curve, though single readings can be large or run the other way. Where a SMILES comes first, the peptide text is derived from it. Bridges are numbered along the chain shown (N, C = ends). [ ]: non-standard residue; d: D form. NMeY = CN[CH](Cc1ccc(O)cc1)C(=O)O
reported-endpoint: outcome

Consider the reported outcome for these compounds:
compound: CN[C@@H]1[C@H](O[C@H]2[C@H](O[C@@H]3[C@@H](O)[C@H](O)[C@@H](N=C(N)N)[C@H](O)[C@H]3N=C(N)N)O[C@@H](C)[C@]2(O)C=O)O[C@@H](CO)[C@H](O)[C@H]1O
system-tested: Zika virus NS2B-NS3 protease (unlinked complex)
reported-endpoint: outcome
observed-measurement: inactive

compound: C=C[C@H]1CN2CC[C@H]1C[C@@H]2C(O)c1ccnc2ccc(OC)cc12 (stereo partly drawn)
system-tested: Zika virus NS2B-NS3 protease (unlinked complex)
reported-endpoint: outcome
observed-measurement: inactive

compound: CCN1CCN(Cc2ccc(NC(=O)c3ccc(C)c(/C=C/c4cnc5[nH]ccc5c4OC)c3)cc2C(F)(F)F)CC1
system-tested: Zika virus NS2B-NS3 protease (unlinked complex)
reported-endpoint: outcome
observed-measurement: inactive

compound: CCC(C)C1NC(=O)C2CCCN2C(=O)C(NC(C)=O)C(C)OC(=O)C(Cc2ccc(OC)cc2)N(C)C(=O)C2CCCN2C(=O)C(C(C)C)NC1=O (stereo not drawn) (Ac-TPIVP[NMeY](Me); ester 1-C; configuration not given here)
system-tested: Zika virus NS2B-NS3 protease (unlinked complex)
reported-endpoint: outcome
observed-measurement: inactive

compound: COC(=O)C[C@H]1C(C)(C)[C@H](OC(C)=O)C2CC3=C4CC(=O)O[C@@H](c5ccoc5)[C@]4(C)CCC3[C@@]1(C)C2=O (stereo partly drawn)
system-tested: Zika virus NS2B-NS3 protease (unlinked complex)
reported-endpoint: outcome
observed-measurement: inactive

# next compound below
outcome reading for Cc1cc(N(C)C)ccc1-c1nc2ccc(-c3nc4ccc(N5CCN(C)CC5)cc4[nH]3)cc2[nH]1 : inactive

---

Tested on: CAOV3
Experiment: Primary qHTS to identify gynecologic anti-cancer compounds using libraries of approved drugs and bioactive compounds (AID 1345084); note: nearly all actives have a fitted effect of over 55% in size
Conditions: Gynecologic cancer cell panel viability, ATPlite luminescence, 48 h; series mostly up to 57.5 µM
Excerpt: National Center for Advancing Translational Sciences [NCATS] Assay Overview: Chemotherapeutic drug responses vary from cancer to cancer and from patient to patient. […] ATPlite is a luminescence based assay reliant on the conversion of a luciferase substrate to light in the presence of ATP. As a cytotoxic compound will suppress growth and decrease the number of cells, the concentration of ATP will decrease, and less light signal will be detected in the well. […]
Inconclusive results are not listed. Calls of active or inactive are those of the source. Calls come from the whole dose curve; as a rule, active = well fitted cell-killing curve with a large enough effect; inconclusive = small, poorly fitted or top-dose-only effect, or effect the other way; inactive = flat fitted curve, though single readings scatter.
Mark one answer only. Choices: TRUE for active, FALSE for inactive

Check out these entries, answers already filled in.
molecule: CC1=CC(=O)[C@H]2C(C)(C)CCC[C@]2(C)[C@@]1(O)CO
label: FALSE
//
molecule: CC1(C)CCC[C@]2(C)[C@H]3CC(=O)O[C@]3(C)CC[C@@H]12
label: FALSE

Task: Outcome? CC(C)=CCCC1(C)C=Cc2c(c(C)cc3c2[nH]c2ccccc23)O1 (configuration not stated)
Result: FALSE

Task: Outcome? COC(=O)C1=CO[C@@H](O[C@@H]2O[C@H](CO)[C@@H](O)[C@H](O)[C@H]2O)[C@H]2[C@@H]1C=C[C@@]21C=C([C@H](C)O)C(=O)O1
Result: FALSE

Task: Outcome? CC(O)c1cc(C(=O)N[C@@H](C)Cn2ccc(-c3ccc(C#N)c(Cl)c3)n2)n[nH]1 (some centres not stated)
Result: FALSE

---

Tested on: SKOV3
Experiment: Primary qHTS to identify gynecologic anti-cancer compounds using libraries of approved drugs and bioactive compounds (AID 1345084); note: nearly all actives have a fitted effect of over 55% in size
Settings: Gynecologic cancer cell panel viability, ATPlite luminescence, 48 h; series mostly up to 57.5 µM
Results filed as inconclusive are left out. Active and inactive are the calls of the source. Calls follow the shape of the dose curve; as a rule, active = well fitted cell-killing curve with a large enough effect; inconclusive = small, poorly fitted or top-dose-only effect, or effect the other way; inactive = flat fitted curve, though single readings scatter.
Mark one answer only. Choices: active, inactive

Task: Outcome? C/C(=C\CCC(C)CCO)C(=O)O[C@@H]1[C@@H](O)[C@H](OC2OC=C(C(=O)O)C3CCC(C)(O)C23)O[C@H](CO)[C@H]1O (some centres not stated)
Result: inactive

Task: Outcome? COc1ccc(C2=N[C@@H](c3ccc(Cl)cc3)[C@@H](c3ccc(Cl)cc3)N2C(=O)N2CCNC(=O)C2)c(OC(C)C)c1
Result: inactive

Task: Outcome? C=C1C[C@]23C[C@H]1CC[C@H]2[C@@]1(C)CCC[C@@]2(C)C(=O)O[C@@H]([C@@H]3O)[C@@H]12
Result: inactive

Task: Outcome? CN(C)CCn1cc(S(=O)(=O)c2cccc(F)c2)c2cccnc21
Result: inactive

Task: Outcome? CC(=O)N1CCN(Cc2ccc([C@H](C)Nc3nccc(N4C(=O)OC[C@@H]4C(C)C)n3)cc2)CC1
Result: inactive

Task: Outcome? CO[C@H]1/C=C/C=C/C=C/C[C@H](OC(=O)[C@@H](C)NC(=O)C2CCCCC2)[C@H](C)[C@@H](O)/C(C)=C/CCc2cc(O)cc(c2)NC(=O)C1
Result: active

Task: Outcome? OC[C@H]1O[C@@H](O[C@H]2[C@H](OCCc3ccccc3)O[C@H](CO)[C@@H](O)[C@@H]2O)[C@H](O)[C@@H](O)[C@@H]1O
Result: inactive

---

The entries below are paired with their reported activity.
Molecular target: Nicotinamide N-methyltransferase (Homo sapiens)
Assay: Confirmatory Screen for Target Class Profiling of Small Molecule Inhibitors of Methyltransferases (AID 1745852)
Details: MTase-Glo luminescence, SAH detection, recombinant enzyme; measured here: NNMT max response; stronger effect = lower value
Report the figure in % without appending any unit label.

Consider the reported activity for these compounds:
compound: CCOc1cc2ncc(C#N)c(Nc3ccc(F)c(Cl)c3)c2cc1NC(=O)/C=C/CN(C)C
system-tested: Nicotinamide N-methyltransferase (Homo sapiens)
reported-endpoint: activity
unit-of-measure: %
observed-measurement: -82.7
//
compound: CN(CCc1ccc(Nc2ncc(-c3cccnc3)s2)cc1)Cc1ccccc1
system-tested: Nicotinamide N-methyltransferase (Homo sapiens)
reported-endpoint: activity
unit-of-measure: %
observed-measurement: -47.4
//
compound: CC(C)=CCC(O)/C(C)=C/CO[C@@H]1O[C@H](CO)[C@@H](O)[C@H](O)[C@H]1O (stereo partly drawn)
system-tested: Nicotinamide N-methyltransferase (Homo sapiens)
reported-endpoint: activity
unit-of-measure: %
observed-measurement: 0
//
compound: CC/C=C\CCO[C@@H]1O[C@H](CO)[C@@H](O)[C@H](O)[C@H]1O
system-tested: Nicotinamide N-methyltransferase (Homo sapiens)
reported-endpoint: activity
unit-of-measure: %
observed-measurement: 1.9

activity reading for C=C1C(=O)OC2/C=C(\CO)CC/C=C(\C=O)CC(OC(=O)CC(C)C)C12 (stereo not drawn) : -4.38

activity reading for COc1cc(OC)cc(C(=O)Nc2ccc(Cl)c(-c3nc4ccc(N(C)C)cc4[nH]3)c2)c1 : -8.83

activity reading for CN(C)C/C=C/C(=O)Nc1cccc(C(=O)Nc2ccc(Nc3nccc(-c4cccnc4)n3)cc2)c1 : -7.5

activity reading for O=C(O)/C=C/c1ccc(-c2ccc(O)c(C34CC5CC(CC(C5)C3)C4)c2)cc1 : -84

---

Experiment: Primary fluorescence-based thiol-reactive (MSTI) qHTS assay for identification of artifact compounds. (AID 1845221);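 note: thiol-reactive compounds lower the probe fluorescence signal; nearly all actives have a fitted effect of over 65% in size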
Details: MSTI thiol-reactivity probe, 1 h; series mostly up to 53.8 µM
Results filed as inconclusive are left out. The source made the active and inactive calls. Calls follow the shape of the dose curve; as a rule, active = well fitted inhibition curve with a large enough effect; inconclusive = small, poorly fitted or top-dose-only effect; inactive = no such curve, though single readings can be large or run the other way.
Mark one answer only. Choices: active, inactive

Task: Outcome? NC(=O)c1cccc(-c2cc(OC(=O)NC3CCCCC3)ccc2O)c1
Result: inactive

---

Experiment: Primary qHTS for inhibitors of nuclear receptor binding SET domain protein 2 (NSD2) in an isogenic RCH-ACV NSD2 p.E1099K mutant (9B) (AID 1645876); note: % is set by controls: 0 for no effect and ±100 for the full control effect; nearly all actives have a fitted effect of over 70% in size
Conditions: RCH-ACV (leukaemia line) NSD2 E1099K (9B) viability, CellTiter-Glo, 72 h; series mostly up to 44.9 µM
Inconclusive results are not listed. Calls of active or inactive are those of the source. Calls come from the whole dose curve; as a rule, active = well fitted inhibition curve with a large enough effect; inconclusive = small, poorly fitted or top-dose-only effect; inactive = flat fitted curve, though single readings scatter.
reported-endpoint: activity change, negative = viability loss

compound: CC1OC(OC2C(OC3C(O[C@H]4CC[C@@]5(C)C(CC[C@]6(C)C5C(=O)C=C5C7CC(C)(C)CC(O)[C@]7(C)CC[C@]56C)C4(C)C)OC(C(=O)O)C(O)C3O)OCC(O)C2O)C(O)C(O)C1O (some centres undefined)
observed-measurement: -6.05% [at 9.23 µM] (inactive)
//
compound: C[C@@H]1O[C@@H](O[C@@H]2CO[C@@H](O[C@H]3CC[C@@]4(C)C(CC[C@]5(C)C4CC=C4[C@@H]6CC(C)(C)CC[C@]6(C(=O)O[C@@H]6O[C@H](CO)[C@@H](O)[C@H](O)[C@H]6O)CC[C@]45C)[C@]3(C)CO)[C@H](O)[C@H]2O[C@@H]2O[C@H](CO)[C@@H](O)[C@H](O)[C@H]2O)[C@H](O)[C@H](O)[C@H]1O (some centres undefined)
observed-measurement: -16% [at 9.23 µM] (inactive)
//
compound: CC1(C)CC[C@]2(C(=O)O[C@@H]3O[C@H](CO)[C@@H](O)[C@H](O)[C@H]3O)CC[C@]3(C)C(=CCC4[C@@]5(C)CC[C@H](O[C@@H]6O[C@H](C(=O)O)[C@@H](O)[C@H](O)[C@H]6O)[C@@](C)(CO)C5CC[C@]43C)C2C1 (some centres undefined)
observed-measurement: 3.1% [at 9.23 µM] (inactive)

activity change, negative = viability loss reading for CC1(C)CC[C@]2(C(=O)OC3OC(CO)C(O)C(O)C3O)CC[C@]3(C)C(=CCC4[C@@]5(C)CC[C@H](OC6OC(C(=O)O)C(O)C(OC7OC(CO)C(O)C(O)C7O)C6O)C(C)(C)C5CC[C@]43C)C2C1 (some centres undefined) : -3.97% [at 9.23 µM] (inactive)
